# Run description: Caspase-3/7 induction in HepG2 cells by small molecules, qHTS assay (AID 1346978); also: % is scaled to controls: 0 for no effect and ±100 for the full control effect; nearly all actives have a fitted effect of over 15% in size
# Conditions used: HepG2 caspase-3/7 activation, Caspase-Glo luminescence, 17 h; series mostly up to 92.4 µM
Records with an inconclusive call do not appear. The source made the active and inactive calls. Calls follow the shape of the dose curve; as a rule, active = well fitted activation curve with a large enough effect in the repeat runs; inconclusive = weak or mixed curves; inactive = flat fitted curve, though single readings scatter.
Reported property: caspase activation

1) FC(F)(F)C(F)(F)C(F)(F)C(F)(F)C(F)(F)C(F)(F)C(F)(F)C(F)(F)Br
inactive
2) CCN1CC(CCN2CCOCC2)C(c2ccccc2)(c2ccccc2)C1=O (stereo not drawn)
inactive
3) COc1ccccc1N1CCN(CCCNc2cc(=O)n(C)c(=O)n2C)CC1
inactive
4) Cc1ncc(CO)c(CN)c1O
inactive
5) O=C(O)C(=O)Cc1c[nH]c2ccccc12
inactive
6) C[C@@H]1CN(c2c(F)c(F)c3c(=O)c(C(=O)O)cn(C4CC4)c3c2F)C[C@H](C)N1
-1.23% [at 19 µM] (inactive)
7) CC(C)S
inactive
8) CO[Si](C)(C)OC
inactive
9) CC(C)=CCC[C@](C)(O)[C@@H]1CC=C(C)CC1
inactive
10) CN1CCN(N)CC1
inactive
11) NNS(=O)(=O)c1ccc(Oc2ccc(S(=O)(=O)NN)cc2)cc1
inactive
12) NC1=NCC2c3ccccc3Cc3ccccc3N12 (stereo not drawn)
inactive
13) c1ccc(CN(CC2=NCCN2)c2ccccc2)cc1
inactive

Cited source: PubChem BioAssay (Tox21)
